- Assay remarks: yeast display, Sf9 membrane polyspecificity reagent, FACS + sequencing; frameworks hold sequencing errors
Measurement label: polyreactivity (PSR sort gate)

>>> recorded_value("QVQLVESGGGLVQAGGSLRLSCSASGSTFNVNAMGWYRQAPGKERELVAAIRTSGGSTYYADSVKGRFTISRDNAKNTVYLQMNSLKQEDTAVYYCNARVGSSSSRYYYWGQGTQVTVSS")
"low polyreactivity"
>>> recorded_value("QVQLVESGGGLVQAGGSLRLSCAASGSTFVHYAMGWYRQAPGKERELVAAITWSGGSTYYADSVKGRFTISRDNAKNTVYLPMNSLKPEDTAVYYCAARNFGAWRWYSYGAHLGSEYWGQGTQVTVSS")
"low polyreactivity"
>>> recorded_value("QVQLVESGGRLVQAGGSLRLSCAASGRTFHKNAMGWYRQAPGKERELVAAISGSGGSTYYADSVKGRFTISRDNAKNTVYLQMNSLKPEDTAVYYCAADSSYYEEDYWGQGTHVTVSS")
"high polyreactivity"
>>> recorded_value("QVQLVESGGGLVQAGGSLRLSCAASGSIFVHNDMGWYRQAPGKERELVATIDSAGGTYYADSVKGRFTISRDNAKNTVYLQMNSLKPEDTAVYYCAAYGPYVLSIYDYWGQGTQVTVSS")
"low polyreactivity"
>>> recorded_value("QVQLVESGGGLVQAGGSLRLSCAASGSIFGTNAMGWYRQAPGKERELVAAIRGSGGRTYYADSVKGRFTISRDNAKNTVYLQMNSLKPEDTAVYYCAARWGPYYGGVRYGYWGQGTQVTVSS")
"high polyreactivity"

* * *

- Assay remarks: yeast display, Sf9 membrane polyspecificity reagent, FACS + sequencing; frameworks hold sequencing errors
Measurement label: polyreactivity (PSR sort gate)

>>> recorded_value("QVQLVESGGGLVQAGGSLRLSCAASGLTFYNNAMGWYRQAPGKERELVARISSGGSTYYADSVKGRFTISRDNAKNTVYLQMNSLKPEDTAVYYCAAGRGYWWWYGYDYWGQGTQVTVSS")
"low polyreactivity"
>>> recorded_value("QVQLVESGGGLVQAGGILRLTCAASGRTNTYNAMGSYRQAPGKERELVAAITWSGGSTYYADSVKGRFTISRDNAKNTVYLQMNSLKPEDTAVYYCAKEFYYSSGFDYWGQGTQVTVSS")
"low polyreactivity"

* * *

- Assay remarks: yeast display, Sf9 membrane polyspecificity reagent, FACS + sequencing; frameworks hold sequencing errors
Measurement label: polyreactivity (PSR sort gate)

>>> recorded_value("QVQLVESGGGLVQAGGSLRLSCAASGRTFQRNAMGWYRQAPGKERELVAAITTGSRTYYADSVKGRFTISRDNAKNTVYLQMNSLKPEDTAFYYCAAVATRRDYGYWGQGTQVTVLS")
"high polyreactivity"
>>> recorded_value("QVQLVESGGGLVQAGGSLRLTCAASGSIFPGYAMGWYRQAPGKDRELVATITASGGSTYYADSVKGRFTISRDNAKNTVFLQMISLKPEDTAVYDCAKDRYWYFRRRGQYDYWGQGTQVTVSS")
"high polyreactivity"
>>> recorded_value("QVQLVESAGGLVQAGGSLPLSSAASGRIFVWYAMRWYRQAPGKDRELVAAISISGSSTYYADSVKGRFTISRDNAKNTVYLQMNSLNPEDTAVYYCAARFYSSAYWYDYWGQGTQVTVSS")
"high polyreactivity"
>>> recorded_value("QVQLVETGGGLVQAGGSLRLSCADYGYILWNAMGWYRQAPGTEMELVPAIRFRGGSTSYADSVKGRFTISRDNAQNTVYLQMKSLKPVYTAVYYCNARWWVIRPYERHDYWGQGTQVTVTS")
"low polyreactivity"
>>> recorded_value("QVQLVESGGGLVQAGGSLRLTCAASGFTFVINDMGWYRQAPGKERELVADITSGGDTYYADSVKGRFTISRDNAKNTVNFQMYSLKPEDTAVYYCAADIYPDWIYLLYGYWGQGTQVTVSS")
"low polyreactivity"
